Tested on: anti-miR-21 oligo(2′-O-methylribonucleotide)
TEST SUMMARY: DLS of dendriplexes with anti-miR-21 oligonucleotide
Assay type: physicochemical
MEASUREMENT CONDITIONS: CR 10
Note to self: values exactly at 0.1 are YES. So PI of dendriplex at or above 0.1 is YES, below is NO.

Worked cases, answers included:
>  <COMPOUND>
CCCCCCCCCCCCNC(=O)c1cc(OCCC[Si](CCCSCC(=O)NCCC[P+](c2ccccc2)(c2ccccc2)c2ccccc2)(CCCSCC(=O)NCCC[P+](c2ccccc2)(c2ccccc2)c2ccccc2)CCCSCC(=O)NCCC[P+](c2ccccc2)(c2ccccc2)c2ccccc2)cc(OCCC[Si](CCCSCC(=O)NCCC[P+](c2ccccc2)(c2ccccc2)c2ccccc2)(CCCSCC(=O)NCCC[P+](c2ccccc2)(c2ccccc2)c2ccccc2)CCCSCC(=O)NCCC[P+](c2ccccc2)(c2ccccc2)c2ccccc2)c1 [DnP6-1C12]

>  <CLASS LABEL>
NO

$$$$
>  <COMPOUND>
CCCCCCCCCCCCCCCCCCNC(=O)c1cc(OCCC[Si](CCCSCC(=O)NCCC[P+](c2ccccc2)(c2ccccc2)c2ccccc2)(CCCSCC(=O)NCCC[P+](c2ccccc2)(c2ccccc2)c2ccccc2)CCCSCC(=O)NCCC[P+](c2ccccc2)(c2ccccc2)c2ccccc2)cc(C(=O)NCCCCCCCCCCCCCCCCCC)c1 [DnP3-2C18]

>  <CLASS LABEL>
YES

$$$$
>  <COMPOUND>
CCCCCCCCCCCCCCCCCCNC(=O)c1cc(OCCC[Si](CCCSCC(=O)NCCC[P+](c2ccccc2)(c2ccccc2)c2ccccc2)(CCCSCC(=O)NCCC[P+](c2ccccc2)(c2ccccc2)c2ccccc2)CCCSCC(=O)NCCC[P+](c2ccccc2)(c2ccccc2)c2ccccc2)cc(OCCC[Si](CCCSCC(=O)NCCC[P+](c2ccccc2)(c2ccccc2)c2ccccc2)(CCCSCC(=O)NCCC[P+](c2ccccc2)(c2ccccc2)c2ccccc2)CCCSCC(=O)NCCC[P+](c2ccccc2)(c2ccccc2)c2ccccc2)c1 [DnP6-1C18]

>  <CLASS LABEL>
YES

$$$$
>  <COMPOUND>
CCCCCCCCCCCCNC(=O)c1cc(OCCC[Si](CCCSCC(=O)NCCC[P+](c2ccccc2)(c2ccccc2)c2ccccc2)(CCCSCC(=O)NCCC[P+](c2ccccc2)(c2ccccc2)c2ccccc2)CCCSCC(=O)NCCC[P+](c2ccccc2)(c2ccccc2)c2ccccc2)cc(C(=O)NCCCCCCCCCCCC)c1 [DnP3-2C12]

>  <CLASS LABEL>
YES

$$$$

Now consider the entry below.
q: Record CCCCCCCCCCCCCCCCCCNC(=O)c1ccc(OCCC[Si](CCCSCC(=O)NCCC[P+](c2ccccc2)(c2ccccc2)c2ccccc2)(CCCSCC(=O)NCCC[P+](c2ccccc2)(c2ccccc2)c2ccccc2)CCCSCC(=O)NCCC[P+](c2ccccc2)(c2ccccc2)c2ccccc2)cc1 [DnP3-1C18] ; criterion: PI of dendriplex no lower than 0.1. Met?
a: YES
